Measured remaining at 0.5 h, 10 µM of individual entries
Experiment: Liver microsomal stability, dog
Type: in vitro ADME, Beagle dog
Conditions: Beagle, pooled liver microsomes, pH 7.4, substrate 10 µM, protein 0.5 mg/mL, n = 2, read-out: % Remaining at 30 min

compound | unit-abbreviation | remaining at 0.5 h, 10 µM
CCCCCCCCCC(O)CC(=O)CCc1ccc(O)c(OC)c1 (stereo not shown) [10G, 10-gingerol] | % | 45
CCCCC/C=C/C(=O)CCc1ccc(O)c(OC)c1 | % | 9
CCCCC[C@H](O)CC(=O)CCc1ccc(O)c(OC)c1 | % | 67
CCCCCCCC(O)CC(=O)CCc1ccc(O)c(OC)c1 (stereo not shown) | % | 6
